# assayed system: HIF-2α (Homo sapiens)
# Construct: host or cells: 786-O cells stably transduced with Cignal Lenti HIF Luc Reporter (only the reporter was introduced, not HIF-2α)
# Sequence (Q99814 whole entry): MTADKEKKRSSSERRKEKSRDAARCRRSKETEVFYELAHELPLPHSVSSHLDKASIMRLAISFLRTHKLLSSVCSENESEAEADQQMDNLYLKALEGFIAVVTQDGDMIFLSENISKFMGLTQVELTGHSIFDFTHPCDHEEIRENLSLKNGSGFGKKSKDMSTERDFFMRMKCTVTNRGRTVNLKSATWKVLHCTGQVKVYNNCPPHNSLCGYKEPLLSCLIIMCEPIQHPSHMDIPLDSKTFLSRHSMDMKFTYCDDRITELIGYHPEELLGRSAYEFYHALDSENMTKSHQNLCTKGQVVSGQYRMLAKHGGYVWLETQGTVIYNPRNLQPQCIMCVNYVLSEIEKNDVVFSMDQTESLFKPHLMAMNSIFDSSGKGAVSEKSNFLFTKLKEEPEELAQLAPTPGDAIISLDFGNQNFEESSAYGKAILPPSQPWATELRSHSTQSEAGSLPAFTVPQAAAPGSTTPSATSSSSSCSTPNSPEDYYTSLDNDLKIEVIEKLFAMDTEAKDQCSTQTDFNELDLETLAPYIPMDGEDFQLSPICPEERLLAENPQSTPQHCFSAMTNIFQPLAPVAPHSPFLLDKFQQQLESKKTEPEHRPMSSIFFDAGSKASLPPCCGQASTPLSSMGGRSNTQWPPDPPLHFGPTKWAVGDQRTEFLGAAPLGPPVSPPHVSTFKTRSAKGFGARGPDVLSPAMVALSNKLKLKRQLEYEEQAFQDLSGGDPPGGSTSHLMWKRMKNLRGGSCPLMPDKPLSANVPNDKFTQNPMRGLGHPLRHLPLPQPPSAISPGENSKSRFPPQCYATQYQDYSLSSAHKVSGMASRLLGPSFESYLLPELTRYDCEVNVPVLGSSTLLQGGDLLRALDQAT
# experiment: HIF-2α luciferase reporter assay in HIF-Luc-786-O cells
# Format: cell-based
# test conditions: Table 3, 20 hours incubation
attribute measured: IC50

Which IC50 reading was recorded for the compound Cn1cnc(-c2ccc([C@H]3CC[C@H](F)c4cc(F)cc(C#N)c43)c3c2[C@H](O)C(F)(F)C3)n1 [Example 182] ?
100 to 1000 nM

Return reported IC50; argument: N#Cc1cc(F)cc2c1[C@@H](c1ccc(-c3c[nH]c4ncccc34)c3c1CC(F)(F)[C@H]3O)CC[C@@H]2F [Example 243]
100 to 1000 nM

Query (compound): CS(=O)(=O)c1c(Cl)cc([C@H]2CC[C@H](F)c3cc(F)cc(C#N)c32)c2c1[C@H](O)[C@H](F)C2 [Example 213] ; field requested: IC50
< 100 nM

Using the record for Cc1ccc(-c2ccc([C@H]3CC[C@H](F)c4cc(F)cc(C#N)c43)c3c2[C@H](O)C(F)(F)C3)c(N)c1 [Example 195] , report its IC50.
< 100 nM

Look at this compound and give its reported IC50. N#Cc1cc(F)cc2c1[C@@H](c1ccc(-c3cnc4cccnn34)c3c1CC(F)(F)[C@H]3O)CC[C@@H]2F [Example 237]
< 100 nM

Quick check: IC50 of Cc1ncc(-c2c(F)cc([C@H]3CC[C@H](F)c4cc(F)cc(C#N)c43)c3c2[C@H](O)C(F)(F)C3)c(N)n1 [Example 205] ?
< 100 nM

Look at this compound and give its reported IC50. Cn1nncc1-c1ccc([C@H]2C[C@H](F)[C@H](F)c3cc(F)cc(C#N)c32)c2c1[C@H](O)C(F)(F)C2 [Example 218]
< 100 nM

For Cc1nccnc1-c1ccc([C@H]2CC[C@H](F)c3cc(F)cc(C#N)c32)c2c1[C@H](O)C(F)(F)C2 [Example 176] , what is its reported IC50?
< 100 nM

So what's the measured IC50 for this one? Cc1ccc(-c2ccc([C@H]3CC[C@H](F)c4cc(F)cc(C#N)c43)c3c2[C@H](O)C(F)(F)C3)c(N)n1 [Example 185]
< 100 nM

IC50 for CS(=O)(=O)c1c(F)cc([C@H]2CC[C@H](F)c3cc(F)cc(C#N)c32)c2c1[C@H](O)[C@H](F)C2 [Example 211] ?
< 100 nM

I would be grateful if you could share the reported IC50 for N#Cc1cc(F)cc2c1[C@@H](c1ccc(-c3ccc(F)cc3N)c3c1CC(F)(F)[C@H]3O)CC[C@@H]2F [Example 194] .
< 100 nM

Any idea what IC50 was measured for Cc1cccnc1-c1ccc([C@H]2CC[C@H](F)c3cc(F)cc(C#N)c32)c2c1[C@H](O)C(F)(F)C2 [Example 244] ?
< 100 nM

What does the record list as IC50 for Cn1cc(-c2c(F)cc([C@H]3CC[C@H](F)c4cc(F)cc(C#N)c43)c3c2[C@H](O)C(F)(F)C3)nn1 [Example 202] ?
< 100 nM

What IC50 value was documented for this compound, CS(=O)(=O)c1c(C#N)cc([C@H]2CC[C@H](F)c3cc(F)cc(C#N)c32)c2c1[C@H](O)[C@H](F)C2 [Example 214] ?
100 to 1000 nM
